Hi there, I'd appreciate the recorded log10 of IC50 for every entry that follows.
target: h-cGAS (Homo sapiens, UniProt Q8N884); assay: ATP-coupled luminescence (LUM, Kinase-Glo) high-throughput assay, h-cGAS; type: biochemical; parameters: His6-SUMO (N, cleaved yes); made in house; host or cells: E. coli BL21-CodonPlus(DE3)-RIL; conditions: library stock, ten half-dilutions from 25 µM; read-out: h-cGAS IC50 (LUM)
Sequence (Q8N884 whole entry): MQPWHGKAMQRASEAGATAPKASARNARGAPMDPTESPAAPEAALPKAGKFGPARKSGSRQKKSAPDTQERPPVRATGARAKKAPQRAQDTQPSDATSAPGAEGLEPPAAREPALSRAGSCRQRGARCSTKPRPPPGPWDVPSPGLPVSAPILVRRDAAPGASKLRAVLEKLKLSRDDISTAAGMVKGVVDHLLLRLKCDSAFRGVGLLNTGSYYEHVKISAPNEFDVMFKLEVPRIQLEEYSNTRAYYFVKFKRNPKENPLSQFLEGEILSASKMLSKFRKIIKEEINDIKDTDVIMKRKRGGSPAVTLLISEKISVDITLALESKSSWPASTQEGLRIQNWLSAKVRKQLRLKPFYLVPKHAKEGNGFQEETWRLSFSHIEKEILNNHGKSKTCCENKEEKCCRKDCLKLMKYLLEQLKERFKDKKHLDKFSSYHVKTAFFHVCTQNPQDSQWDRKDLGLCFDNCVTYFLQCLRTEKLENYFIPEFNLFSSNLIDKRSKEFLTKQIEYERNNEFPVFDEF
Parameter value (number): base-10 log of IC50 in µM.

# query: log10 of IC50 of entry COCc1nn2c(=O)cc(Cc3ccccc3)[nH]c2c1-c1ccccc1
0.14

# query: log10 of IC50 of entry O=C(O)Cc1cc(I)c(Oc2cc(I)c(O)c(I)c2)c(I)c1
0.79

# query: log10 of IC50 of entry Cc1c2c(nc3cc4c(cc13)OCO4)CCc1ccccc1-2
0.97

# query: log10 of IC50 of entry O=c1[nH]c2c(Cl)c(Cl)c(Cl)cc2o1
0.59

# query: log10 of IC50 of entry O=C1NC(=S)S/C1=C\c1ccc(-c2ccccc2C(=O)O)o1
0.56

# query: log10 of IC50 of entry O=C(Nc1ncccc1O)c1nc(-c2ccccc2)n2c1CCCCC2
0.39

# query: log10 of IC50 of entry O=c1cc(Cc2ccccc2)[nH]c2c(-c3ccccc3)c(C(F)(F)F)nn12
0.21

# query: log10 of IC50 of entry Oc1ccccc1C1=NNC2(CC3CC2C2CCCC32)S1 (stereo not drawn)
0.68

# query: log10 of IC50 of entry CNC(=O)CSc1nc(=O)n2nc(C)c(-c3ccccc3)c2[nH]1
0.96

# query: log10 of IC50 of entry N#Cc1c(C(F)(F)F)cc(=O)n2c1[nH]c1ccccc12
-0.89

# query: log10 of IC50 of entry NC(=O)n1c(O)c(C(=O)c2cccs2)c2cc(Cl)ccc21
0.14

# query: log10 of IC50 of entry COC(=O)C1=NN2C(=NS(=O)(=O)c3ccccc32)N1
0.82

# query: log10 of IC50 of entry CSC(=S)N/N=C(\c1ccccc1)c1ccccn1
0.67

# query: log10 of IC50 of entry Cc1ccc2c(=O)c3ccccc3n(CCCN)c2c1C
0.41

# query: log10 of IC50 of entry CCC/N=C\c1c(-c2ccccc2)[nH]n(-c2nc3ccccc3s2)c1=O
0.86

# query: log10 of IC50 of entry O=c1c(/C=N\C2CC2)c(-c2ccccc2)[nH]n1-c1nc2ccccc2s1
0.89

# query: log10 of IC50 of entry Oc1cccc2ccc(Nc3ccccn3)nc12
0.96

# query: log10 of IC50 of entry O=C(O)CN1C(=O)/C(=C\c2cc([N+](=O)[O-])cc(Br)c2O)SC1=S
0.19

====

Hi there, I'd appreciate the recorded IC50 for every entry that follows.
target: UniProtKB Q8C6L5; assay: RapidFire mass spectrometry (RF-MS) cGAS activity assay, m-cGAS; conditions: IC50 m-cGAS, RF-MS; in-house synthesized compounds
Numeric answer only, unit nM assumed.

So what IC50 did O=C(Nc1cc(-c2ccccc2)ccn1)c1nnc[nH]1 [J073] get with UniProtKB Q8C6L5?
4320

So what IC50 did O=C(Nc1ccc(Cl)cn1)c1[nH]ncc1[N+](=O)[O-] [J001] get with UniProtKB Q8C6L5?
490

So what IC50 did COCC(=O)N1CCc2[nH]c3c(Cl)cc(Cl)cc3c2C1 [G001] get with UniProtKB Q8C6L5?
440

====

Hi there, I'd appreciate the recorded pIC50 for every entry that follows.
target: h-cGAS (Homo sapiens, UniProt Q8N884); test: ATP-coupled luminescence (LUM, Kinase-Glo) high-throughput assay, h-cGAS; type: biochemical; parameters: His6-SUMO (N, cleaved yes); made in house; host or cells: E. coli BL21-CodonPlus(DE3)-RIL; settings: library stock, ten half-dilutions from 25 µM; read-out: h-cGAS IC50 (LUM)
Reminder that pIC50 is minus the log10 of a molar concentration.

# query: pIC50 of entry Cc1ccc(-n2[nH]c(C(=O)Nc3ccnc4ccnn34)cc2=O)cc1
5.57

# query: pIC50 of entry CCC(=O)Nc1sc2c(c1-c1nc3ccccc3s1)CCN(CC)C2
5.96

# query: pIC50 of entry N=C1/C(=C/c2ccc(O)cc2)C(=O)N=C2SC(c3ccccc3Cl)=NN12
5.00

# query: pIC50 of entry O=C(Nc1ccc(Cl)cn1)c1[nH]ncc1[N+](=O)[O-]
6.04

# query: pIC50 of entry N#CC(C(=O)/C=C/c1nccs1)C(=O)Nc1cccc(Cl)c1Cl (stereo not shown)
5.13

# query: pIC50 of entry FC(F)(F)c1nc2cc(Cl)cc(Cl)c2[nH]1
5.47

# query: pIC50 of entry S=c1[nH]nc(-c2sc3ccccc3c2Cl)o1
5.06

====

tested on: 45-bp dsDNA; experiment: dsDNA intercalation fluorescence polarization assay (acridine orange); format: binding; settings: 30 µM
Hi there, I'd appreciate the recorded % Intercalation at 30 µM for every entry that follows.
Numeric answer only, unit % assumed.

# query: % Intercalation at 30 µM of entry N=C1/C(=C/c2ccc(O)cc2)C(=O)N=C2SC(c3ccccc3Cl)=NN12
-14.25

# query: % Intercalation at 30 µM of entry NC(=O)n1c(O)c(C(=O)c2cccs2)c2cc(Cl)ccc21
-15.37

# query: % Intercalation at 30 µM of entry Cc1ccc2c(=O)c3ccccc3n(CCCN)c2c1C
45.76

# query: % Intercalation at 30 µM of entry Oc1cccc2ccc(Nc3ccccn3)nc12
10.31

# query: % Intercalation at 30 µM of entry N#CC(C(=O)/C=C/c1nccs1)C(=O)Nc1cccc(Cl)c1Cl (stereo not drawn)
-6.77

# query: % Intercalation at 30 µM of entry O=c1cc(Cc2ccccc2)[nH]c2c(-c3ccccc3)c(C(F)(F)F)nn12
-8.74

# query: % Intercalation at 30 µM of entry COCc1nn2c(=O)cc(Cc3ccccc3)[nH]c2c1-c1ccccc1
-2.74

# query: % Intercalation at 30 µM of entry O=C1NC(=S)S/C1=C\c1ccc(-c2ccccc2C(=O)O)o1
-24.96

# query: % Intercalation at 30 µM of entry O=C(Nc1ncccc1O)c1nc(-c2ccccc2)n2c1CCCCC2
-4.67

# query: % Intercalation at 30 µM of entry CCC/N=C\c1c(-c2ccccc2)[nH]n(-c2nc3ccccc3s2)c1=O
-3.39

# query: % Intercalation at 30 µM of entry FC(F)(F)c1nc2cc(Cl)cc(Cl)c2[nH]1
-3.44

# query: % Intercalation at 30 µM of entry Oc1ccccc1C1=NNC2(CC3CC2C2CCCC32)S1 (stereo not drawn)
-11.48

# query: % Intercalation at 30 µM of entry CSC(=S)N/N=C(\c1ccccc1)c1ccccn1
-10.03

# query: % Intercalation at 30 µM of entry CNC(=O)CSc1nc(=O)n2nc(C)c(-c3ccccc3)c2[nH]1
-8.43

# query: % Intercalation at 30 µM of entry COCC(=O)N1CCc2[nH]c3c(Cl)cc(Cl)cc3c2C1
-6.09

# query: % Intercalation at 30 µM of entry Clc1ccc2c(-n3ccnc3)ccnc2c1
-4.04

# query: % Intercalation at 30 µM of entry O=c1c(/C=N\C2CC2)c(-c2ccccc2)[nH]n1-c1nc2ccccc2s1
-5.01

# query: % Intercalation at 30 µM of entry COC(=O)C1=NN2C(=NS(=O)(=O)c3ccccc32)N1
-6.61

# query: % Intercalation at 30 µM of entry O=C(Nc1ccc(Cl)cn1)c1[nH]ncc1[N+](=O)[O-]
-7.59

# query: % Intercalation at 30 µM of entry CCC(=O)Nc1sc2c(c1-c1nc3ccccc3s1)CCN(CC)C2
40.34

# query: % Intercalation at 30 µM of entry O=c1[nH]c2c(Cl)c(Cl)c(Cl)cc2o1
-9.27

====

molecular target: m-cGAS (Mus musculus, UniProt Q8C6L5); assay: RapidFire mass spectrometry (RF-MS) cGAS activity assay, m-cGAS; conditions: m-cGAS IC50, RF-MS; freshly sourced vendor powder
Sequence (Q8C6L5 whole entry): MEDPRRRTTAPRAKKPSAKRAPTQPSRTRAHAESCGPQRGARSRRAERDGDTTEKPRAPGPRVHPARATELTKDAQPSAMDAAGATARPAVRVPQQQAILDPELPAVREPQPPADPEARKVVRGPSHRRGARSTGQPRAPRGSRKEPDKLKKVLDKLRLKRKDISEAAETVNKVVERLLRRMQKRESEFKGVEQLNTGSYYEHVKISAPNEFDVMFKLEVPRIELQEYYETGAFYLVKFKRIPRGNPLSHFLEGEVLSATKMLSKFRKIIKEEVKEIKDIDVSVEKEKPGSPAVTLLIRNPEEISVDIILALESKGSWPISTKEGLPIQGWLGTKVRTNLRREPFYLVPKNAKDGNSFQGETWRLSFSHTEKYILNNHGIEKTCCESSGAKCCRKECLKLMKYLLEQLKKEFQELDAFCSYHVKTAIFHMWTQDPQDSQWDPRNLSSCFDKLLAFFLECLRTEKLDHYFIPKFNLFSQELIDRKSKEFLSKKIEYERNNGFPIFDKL
pIC50: −log10 of the molar value.
MEASURED ENDPOINT: pIC50

# query: pIC50 of entry CCC/N=C\c1c(-c2ccccc2)[nH]n(-c2nc3ccccc3s2)c1=O
< 4.30

# query: pIC50 of entry Oc1ccccc1C1=NNC2(CC3CC2C2CCCC32)S1 (stereo not drawn)
< 4.30

# query: pIC50 of entry COCc1nn2c(=O)cc(Cc3ccccc3)[nH]c2c1-c1ccccc1
< 4.30
